Quantity kind: melting point

| Compound | melting point |
| --- | --- |
| CCN(CC)CCNC(=O)c1cc(Cl)c2cc(I)ccc2n1 | 64 to 66 °C |

melting point measured on CC12C=CC(O)CC1CCC1C2CCC2(C)C(C#N)CCC12 (configuration not stated) = 129 to 133 °C

// field: melting point; key: CSc1ccc(NC(=N)c2ccc(Cl)cc2)cc1 ; value = 148 to 150 °C

Quick note, melting point for CCOC(=O)c1cc(SCc2ccccc2)c(Cl)c(S(N)(=O)=O)c1 landed at 182 °C

Input N#Cc1ccc(N2CCC(CCO)C2)c2ccsc12 (configuration not stated) . Output melting point: 109 to 111 °C

Source: a melting point compilation (Tetko et al.; mined from patent text by program, amines drawn as free bases though some values may be those of a salt)
